All values here come from the supplement of paper PMC4466140.

- tested_target: CaMyo5
- protocol_notes: SPOT peptide array binding signal intensity (averaged, normalized) (arbitrary units (background-subtracted, floor 0; scale differs between SH3 domains)); higher = stronger binding of the SH3 domain to the peptide
Note to self: values exactly at 50 are 1.0. So SPOT peptide array binding signal intensity at or above 50 is 1.0, below is 0.0.

- binder: "EREKALPPIPFTTTL"
  class_assignment: 0.0
- binder: "TKPTPPPKPSHLKPK"
  class_assignment: 0.0
- binder: "SHRLWLYAAPKRPKT"
  class_assignment: 0.0
- binder: "NSMRPPLLIPAATTK"
  class_assignment: 1.0
- binder: "HAPPLPPTAPPPPSL"
  class_assignment: 1.0
- binder: "RTIRKLPLMSLSEYF"
  class_assignment: 0.0
- binder: "DLFKPLPEPPTELGR"
  class_assignment: 0.0
- binder: "IRMPSNPALPKKLLN"
  class_assignment: 1.0
- binder: "RLSFFFPLDPAYIRN"
  class_assignment: 1.0
- binder: "LASNSPPVYPKRIRH"
  class_assignment: 0.0
- binder: "RVRKTHVPASKRPSG"
  class_assignment: 0.0
- binder: "NGRRRPKFRVQLSGN"
  class_assignment: 0.0
- binder: "VDFTLPPPPPPPGLD"
  class_assignment: 0.0
- binder: "PALPSLPPPPLLNVD"
  class_assignment: 1.0
- binder: "GQYRRTIVIPRRFFT"
  class_assignment: 0.0
